Reference source: ChEMBL document CHEMBL1201862

Tested on: UO-31
Assay: NCI tumour cell line growth inhibition, 48 h
Calls of active or inactive are those of the source. Cut-off read from the data, not from the text of the source: active = GI50 up to about 1.1 µM and inactive = higher. Numbered stars: 1 amine (or outer) side, 2 acyl side, 3 side chain; on linkers, the order of the positions; unused ones are H or OH. Bridge positions count the residues as written; N and C are the ends. Square brackets hold non-standard residues; d marks the D form. Peptide text beside a SMILES is read from it. X58 = COc1c(N[*:1])cccc1C(=O)O[C@H](C(=O)[C@H](C)C(=O)[*:2])C(C)C; X57 = CC(C)C[C@H](C(=O)[*:2])C(C)C(=O)C1CCCN1[*:1]; NMeY = CN[C@@H](Cc1ccc(O)cc1)C(=O)O; Lac = C[C@H](O)C(=O)O
Classes used: yes = active, no = inactive

compound	category label
C[C@@H]1C[C@@H]2C(=O)N(c3ccccc3)C(=O)[C@@H]2c2[nH]c3ccc(Br)cc3c21	no
CCCC(=O)c1c(NOC2OC(COC(C)=O)C(OC(C)=O)C(OC(C)=O)C2OC(C)=O)nc(OC)n(C)c1=O (stereo unspecified)	no
COc1ccc(/N=c2\ssc(C(=S)Nc3ccc(OC)cc3)c2S)cc1	no
C/C(=N\NC(C)(C)C)c1sc(-c2nc(C)c(/C(C)=N/NC(C)(C)C)s2)nc1C	no
Oc1c(N2CCCCC2)cc(-c2cc(N3CCCCC3)c(O)c3ccccc23)c2ccccc12	no
O=S(=O)(SCc1ccccc1)C(c1ccccc1)c1ccccc1	no
COc1ccc(C[C@H]2C(=O)O[C@H](C)[C@H](NC(=O)[C@@H](CC(C)C)C(C)C(=O)C3CCCN3C(=O)[C@H](C)O)C(=O)Nc3cccc(c3OC)C(=O)O[C@@H](C(C)C)C(=O)[C@H](C)C(=O)N[C@@H](CC(C)C)C(=O)N3CCC[C@H]3C(=O)N2C)cc1 (stereo partly specified) (H-[Lac][X57]T[X58]LP[NMeY](Me); ester 3-C)	no
O=C(O)C1C2C=CC(C2)C1c1ccccc1 (stereo unspecified)	no
Cc1cn(C2CC(N=[N+]=[N-])C(CO[Si](C)(C)C(C)(C)C)O2)c(=O)[nH]c1=O (stereo unspecified)	no
CC(=O)OCC1OC(n2c(C)c(C)cc(C#N)c2=S)C(OC(C)=O)C(OC(C)=O)C1OC(C)=O (stereo unspecified)	no
C=CCOc1ccc(C2C(C(=O)OCC)C(=O)CC(C)(O)C2C(=O)OCC)cc1OC (stereo unspecified)	no
COc1ccc(OC)c2c1C=CC(Br)=CC2	yes
COc1ccc(C=C2C(=O)OC(C)(C)OC2=O)cc1OC	no
CCOC(=O)c1cc(Br)c(-c2cc(C)co2)[nH]1	no
O=Cc1cc2sc(C=O)cc2s1	no
O=C(Cc1ccccc1F)NC1=C(Cl)C(=O)c2ccccc2C1=O	yes
CCCCCCCCCCCC/C=C\CC[C@@H](O)[C@H](O)CC[C@H](O)[C@@H]1CC[C@@H](CCCCCCCC2=C[C@H](C)OC2=O)O1 [GIGANTRIONENIN]	no
CC1(C)CCC[C@@]2(C)C1CC[C@@]1(CO1)[C@@H]2/C=C\C(C=O)CC=O (stereo partly specified)	no
Cc1ccc2c(c1)-c1nc(N)c(C#N)c(-c3ccccc3)c1CCS2(=O)=O	no
Nc1ccc2c(c1)CC1c3ccccc3C(C2)c2ccccc21	no
Cc1ccc(NC(=O)CC(=O)N2N=C(N(C)c3ccccc3)CC2c2ccccc2)cc1 (stereo unspecified)	no
O=C(CCc1ccc(O)cc1)NCCc1ccc(O)cc1	no
Cc1ccc(/C=C2\CCCC(CN3CCCCC3)C2=O)cc1 (stereo unspecified)	no
CCN(CC)CCOc1ccc(/C=C(\C#N)c2ccc(OCCN(CC)CC)cc2)cc1	no
CC(Br)CN1CCOCC1 (stereo unspecified)	no
CC1=C(C(=O)CC(=O)C(=O)Nc2cc(C)ccc2C)Sc2ccccc2N1	no
C/C=C1\CN2CCC34c5ccccc5N(C)C35OCC4(C(=O)OC)C1CC25 (stereo unspecified)	no
C/C(=N\Nc1nc2ccccc2n1C)c1ccncn1	yes
COc1cc2c(cc1OC)C(=O)/C(=C/c1ccc(Cl)cc1)CC2	no
Cc1oc2c(cc(O)c3cc(O)ccc32)c2cccc1-2	no
COc1ccc(C(OCC2OC(n3ccc(NC(=O)c4ccccc4)nc3=O)C(O)C2O)(c2ccccc2)c2ccccc2)cc1 (stereo unspecified)	no
